Origin of the recorded values: the domain aggregation screens of Martell et al. (2025)

Assay Text: soluble fraction after stress (log2 fold change); higher = more stays soluble; pooled small domains, quantitative proteomics
Measurement Conditions: stress: 50 degC
Label true (1) when soluble fraction (log2) >= -0.3; otherwise false (0).

Past entries and their recorded results:
HMSLSEYLSAPVLEGQRNHALFSAVMQAREQGWDEWQIRTTIGAKAEADGLRHAEIAATIRSAMSREITP; true (1)
HMFVTFFHELKSAGVPVSLREYLTLMEAMDRDLASRRVEEFYYLARTALVKDERNLDKFDRVFGHVFKGL; false (0)

INPUT: For this sequence, is measured soluble fraction (log2) -0.3 or higher? HMIGIGSDVPNKLKPAIYSFGLVAVGEKSVIPDGVQIGKNTAVSGVTSKEDYPDGVLESGETLIKA
OUTPUT: true (1)

INPUT: For this sequence, is measured soluble fraction (log2) -0.3 or higher? HMTKPTLMEVEIKGAIQNPGVYTLKRNSSISKLIKMSGPLLENADTSSISFTHILQDKDVVVIPEIK
OUTPUT: true (1)

INPUT: For this sequence, is measured soluble fraction (log2) -0.3 or higher? HMASLASVAYETLRQALDNFQYVPGDRFSESEVGQQLGMSRTPVREALVRLQREGYISVLPKMGWVVNQ
OUTPUT: false (0)

INPUT: For this sequence, is measured soluble fraction (log2) -0.3 or higher? HMRKKTYEIITDDLRRMIEAGLIRPGEKLGAIDQLAAKYRVGRSTVREALSHLKALGLVESRQGGGTYVTK
OUTPUT: true (1)

INPUT: For this sequence, is measured soluble fraction (log2) -0.3 or higher? HMPFREGDEVFVELVEPHMYNEDDAVAKLDGYVVAVRGAAGLVGQKVLVRIERVGRSSAEATLVA
OUTPUT: true (1)

INPUT: For this sequence, is measured soluble fraction (log2) -0.3 or higher? HMTYQHQSIIHRRTRGAILTAAKELLAESGISGTNMIEIADRAQVSRASLYNHFRDKHEVFLALVES
OUTPUT: false (0)
